targetOfAssay: human GPR120 (Homo sapiens, UniProt Q5NUL3)
testMethodNotes: Human GPR120 IP1 assay (inositol phosphate turnover)
recordedConditions: IP1 accumulation in CHO-K1 cells stably expressing the short form of human GPR120
pEC50: −log10 of the molar value.
measuredEndpoint: pEC50

> print(dat)
                                   compound  recordedvalue
1  Oc1cc(-c2ccc(O[C@H]3C[C@H](c4ccnc(OC5CC5)c4)C3)nc2)on1           7.21
2  Oc1cc(-c2cnc(O[C@H]3C[C@@H](c4c(F)cc(Cl)cc4F)C3)cn2)on1           8.01
3  Oc1cc(-c2ccc(OC3CCC(c4cccc(OC(F)(F)F)c4)C3)nc2)on1 (single isomer, unassigned) [Example 119]           7.92
4  Oc1cc(-c2cnc(OC3CC(OCC4CCCC4)C3)cn2)on1 (mixture of isomers)           7.51

----------
targetOfAssay: human GPR120 (Homo sapiens, UniProt Q5NUL3)
Sequence (Q5NUL3 1-361): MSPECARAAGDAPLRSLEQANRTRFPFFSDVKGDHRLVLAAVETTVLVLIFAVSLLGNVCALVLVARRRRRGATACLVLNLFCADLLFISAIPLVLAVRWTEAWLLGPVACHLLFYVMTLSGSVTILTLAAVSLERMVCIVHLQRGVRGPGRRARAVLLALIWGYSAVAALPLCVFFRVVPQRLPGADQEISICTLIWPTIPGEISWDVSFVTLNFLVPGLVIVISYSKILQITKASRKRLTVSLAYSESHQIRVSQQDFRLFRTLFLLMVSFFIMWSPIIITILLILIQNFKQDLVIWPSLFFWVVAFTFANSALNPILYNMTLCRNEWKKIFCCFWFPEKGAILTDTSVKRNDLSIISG
testMethodNotes: Human GPR120 IP1 assay (inositol phosphate turnover)
recordedConditions: IP1 accumulation in CHO-K1 cells stably expressing the short form of human GPR120
measuredEndpoint: EC50 (nM)

> print(dat)
                                 smilesrepr  measuredendpoint  recordedvalue
1  Oc1cc(-c2cnc(O[C@H]3C[C@@H](COc4ccc(F)cc4)C3)cn2)on1              EC50            5.8
2  Oc1cc(-c2cnc(O[C@H]3C[C@@H](c4ccc(C(F)(F)F)cn4)C3)cn2)on1              EC50             46
3  CCOc1cc([C@]2(F)C[C@H](Oc3ccc(-c4cc(O)no4)cn3)C2)ccn1              EC50             15
4  Oc1cc(-c2ccc(O[C@H]3C[C@@H](c4cc(OC(F)(F)F)ccc4F)C3)nc2)on1              EC50            112
5  Oc1cc(-c2cnc(O[C@H]3C[C@H](c4ccc(C(F)F)c(F)c4)C3)cn2)on1              EC50            178
6  Oc1cc(-c2cnc(O[C@H]3C[C@@H](Oc4ccc(F)c(Cl)c4)C3)cn2)on1              EC50             53

----------
Examples of compounds with documented EC50 follow.
targetOfAssay: human GPR120 (Homo sapiens)
testMethodNotes: Human GPR120 IP1 assay (inositol phosphate turnover)
recordedConditions: IP1 accumulation in CHO-K1 cells stably expressing the short form of human GPR120
Where a name gives a salt, the structure may show the parent alone.
measuredEndpoint: EC50 (nM)

> print(dat)
                                   compound                targetofassay  measuredendpoint  uom  recordedvalue
1  Oc1cc(-c2cnc(O[C@H]3C[C@@H](c4ccc(C5CC(F)(F)C5)cc4)C3)cn2)on1  human GPR120 (Homo sapiens)              EC50   nM            155
2  Oc1cc(-c2ccc(O[C@H]3C[C@@H](c4ccnc(OC5CC5)c4)C3)nc2)on1  human GPR120 (Homo sapiens)              EC50   nM             16
3  Oc1cc(-c2cnc(O[C@H]3C[C@@H](Oc4ccc(C(F)(F)F)cc4)C3)cn2)on1  human GPR120 (Homo sapiens)              EC50   nM             47
4  Oc1cc(-c2cnc(O[C@H]3C[C@@H](Oc4csc(C(F)(F)F)c4)C3)cn2)on1  human GPR120 (Homo sapiens)              EC50   nM             25
5  Oc1cc(-c2ccc(OC3CCC(c4cccc(OC(F)(F)F)c4)C3)nc2)on1 (single isomer, unassigned) [Example 116, trifluoroacetate]  human GPR120 (Homo sapiens)              EC50   nM             18
6  Oc1cc(-c2cnc(O[C@H]3C[C@@H](Oc4ccc(F)c(C(F)(F)F)c4)C3)cn2)on1  human GPR120 (Homo sapiens)              EC50   nM             24
7  Oc1cc(-c2ccc(O[C@H]3C[C@@H](c4ccc(C(F)(F)F)cn4)C3)nc2)on1  human GPR120 (Homo sapiens)              EC50   nM             19
